Known IC50 of a selection of molecules
- system: IKKε (Homo sapiens (Human))
- procedure_summary: Lanthascreen TR-FRET kinase inhibition assay, IKKε
- Format: biochemical

{"columns": ["molecule", "IC50"],
 "data": [
  ["N#Cc1cc(-c2ccnc(Nc3ccc(NC(=O)CN4CC[C@H](O)C4)nc3)n2)cnc1N1CC[C@H](F)C1 [DMX-35]", "< 0.03 µM"],
  ["N#Cc1cc(-c2ccnc(Nc3ccc(NCCO)nc3)n2)cnc1N1CC[C@H](F)C1 [DMX-27]", "< 0.03 µM"],
  ["Cn1cc(Nc2nccc(-c3cnc(N4C5CCC4CC(O)C5)c(C#N)c3)n2)cn1 (stereo not shown) [DMX-44]", "< 0.03 µM"],
  ["C[C@H]1COCCN1Cc1ccc(Nc2nccc(-c3ccc(N4CC[C@H](F)C4)c(C#N)n3)n2)cn1 [DMX-149]", "< 0.015 µM"]
]}

====

- system: IKKε (Homo sapiens (Human), UniProt Q14164)
- Sequence (Q14164 whole entry): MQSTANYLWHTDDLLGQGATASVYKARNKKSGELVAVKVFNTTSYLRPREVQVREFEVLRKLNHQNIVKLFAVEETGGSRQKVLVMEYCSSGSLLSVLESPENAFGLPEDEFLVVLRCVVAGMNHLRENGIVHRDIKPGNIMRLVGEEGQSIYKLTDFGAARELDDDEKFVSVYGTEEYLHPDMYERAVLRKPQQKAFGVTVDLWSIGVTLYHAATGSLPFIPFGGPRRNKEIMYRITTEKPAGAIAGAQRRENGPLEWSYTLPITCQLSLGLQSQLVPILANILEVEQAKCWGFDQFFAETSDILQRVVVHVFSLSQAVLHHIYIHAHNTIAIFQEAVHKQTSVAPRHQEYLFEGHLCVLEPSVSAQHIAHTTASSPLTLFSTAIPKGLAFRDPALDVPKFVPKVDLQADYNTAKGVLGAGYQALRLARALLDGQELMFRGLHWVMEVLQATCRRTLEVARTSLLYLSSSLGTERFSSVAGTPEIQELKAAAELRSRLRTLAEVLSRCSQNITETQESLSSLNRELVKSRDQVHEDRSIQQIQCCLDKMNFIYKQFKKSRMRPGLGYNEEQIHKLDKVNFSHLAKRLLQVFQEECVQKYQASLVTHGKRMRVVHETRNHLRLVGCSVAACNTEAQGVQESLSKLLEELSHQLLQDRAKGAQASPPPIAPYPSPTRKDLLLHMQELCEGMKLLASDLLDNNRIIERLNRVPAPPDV
- procedure_summary: Lanthascreen TR-FRET kinase inhibition assay, IKKε
- Format: biochemical
- protocol_conditions: 20 μM ATP (apparent Km), 2 nM kinase, 1 h
pIC50: −log10 of the molar value.
Known pIC50 of a selection of compounds

{"columns": ["compound", "pIC50"],
 "data": [
  ["Cc1nccn1Cc1ccc(Nc2nccc(-c3cnc(N4CC[C@H](F)C4)c(C#N)c3)n2)cn1", "> 7.52"],
  ["CC(C(N)=O)N(C)c1ncc(-c2ccnc(Nc3ccc(CN4CCOCC4)nc3)n2)cc1C#N (centres unmarked)", "> 7.00"],
  ["N#Cc1cc(-c2ccnc(Nc3ccc(NC(=O)CN4CCOCC4)nc3)n2)cnc1N1CC[C@H](F)C1", "> 7.52"],
  ["N#Cc1cc(-c2ccnc(Nc3cnc(N4CCOCC4)nc3)n2)cnc1N1CC[C@H](F)C1", "> 7.00"],
  ["N#Cc1cc(-c2ccnc(Nc3ccc(CN4CCOCC4)nc3)n2)cnc1N1CCC(OC(F)F)C1 (centres unmarked)", "> 7.52"],
  ["N#Cc1cc(-c2ccnc(Nc3ccc(CN4CCOCC4)nc3)n2)cnc1N1CCCC1CC(N)=O (centres unmarked)", "> 7.52"],
  ["N#Cc1cc(-c2ccnc(Nc3ccc(C(=O)NCCO)cc3)n2)cnc1N1CC[C@H](F)C1", "> 7.82"],
  ["CC(=O)NCC1CCCN1c1ncc(-c2ccnc(Nc3ccc(CN4CCOCC4)nc3)n2)cc1C#N (centres unmarked)", "> 6.00"]
]}

====

- system: TBK1 (Homo sapiens (Human), UniProt Q9UHD2)
- Sequence (Q9UHD2 whole entry): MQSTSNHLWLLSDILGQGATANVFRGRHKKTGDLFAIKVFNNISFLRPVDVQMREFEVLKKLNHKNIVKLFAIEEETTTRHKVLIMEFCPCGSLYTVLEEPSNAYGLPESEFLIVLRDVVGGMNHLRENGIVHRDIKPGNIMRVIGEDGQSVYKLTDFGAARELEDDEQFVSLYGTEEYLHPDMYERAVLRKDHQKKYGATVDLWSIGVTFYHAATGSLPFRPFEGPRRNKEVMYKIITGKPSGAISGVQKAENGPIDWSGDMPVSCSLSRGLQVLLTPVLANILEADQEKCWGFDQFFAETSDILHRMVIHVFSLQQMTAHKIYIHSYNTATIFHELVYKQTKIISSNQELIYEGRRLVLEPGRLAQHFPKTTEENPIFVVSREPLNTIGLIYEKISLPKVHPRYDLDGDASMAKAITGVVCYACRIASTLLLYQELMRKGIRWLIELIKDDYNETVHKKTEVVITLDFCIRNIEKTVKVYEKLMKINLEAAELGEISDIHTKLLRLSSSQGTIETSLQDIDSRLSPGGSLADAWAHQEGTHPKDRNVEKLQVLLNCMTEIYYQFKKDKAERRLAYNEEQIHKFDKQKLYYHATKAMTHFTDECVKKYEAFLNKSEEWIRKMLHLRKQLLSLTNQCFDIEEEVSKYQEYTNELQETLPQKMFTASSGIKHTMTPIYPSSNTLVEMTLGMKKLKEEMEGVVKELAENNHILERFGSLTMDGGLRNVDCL
- procedure_summary: Lanthascreen TR-FRET kinase inhibition assay, TBK1
- Format: biochemical
- protocol_conditions: 20 μM ATP (apparent Km), 8 nM kinase, 2.5 h
Known IC50 of a selection of molecules

{"columns": ["compound", "IC50"],
 "data": [
  ["N#Cc1cc(-c2ccnc(Nc3ccc(N4CCNCC4)nc3)n2)cnc1N1CC[C@H](F)C1", "< 30 nM"],
  ["N#Cc1cc(-c2ccnc(Nc3cnn(CCN4CCOCC4)c3)n2)cnc1N1CC[C@H](F)C1", "< 30 nM"],
  ["N#Cc1cc(-c2ccnc(Nc3ccnc(N4CCOCC4)c3)n2)cnc1N1CC[C@H](F)C1", "< 15 nM"],
  ["COCCNc1cc(Nc2ncc(F)c(-c3cnc(NC4CC4)c(C#N)c3)n2)ccn1", "< 100 nM"],
  ["Cn1cc(Nc2nccc(-c3cnc(N4CC[C@H](F)C4)c(C#N)c3)n2)cn1", "< 30 nM"],
  ["N#Cc1nc(-c2ccnc(Nc3ccc(NC(=O)CN4CCOCC4)nc3)n2)ccc1N1CCCOCC1", "< 100 nM"],
  ["N#Cc1cc(-c2ccnc(Nc3ccc(CN4CCOCC4)nc3)n2)cnc1N1CCNC(=O)CC1", "< 1000 nM"],
  ["N#Cc1nc(-c2ccnc(Nc3ccc(NC(=O)CN4CC[C@H](F)C4)nc3)n2)ccc1N1CC[C@H](F)C1", "< 30 nM"]
]}

====

- system: IKKε (Homo sapiens (Human))
- procedure_summary: Lanthascreen TR-FRET kinase inhibition assay, IKKε
- Format: biochemical
- protocol_conditions: 20 μM ATP (apparent Km), 2 nM kinase, 1 h
pIC50: −log10 of the molar value.

{"columns": ["compound", "system", "pIC50"],
 "data": [
  ["N#Cc1cc(-c2ccnc(Nc3ccc(CN4CCOCC4)nc3)n2)cnc1N1CC[C@H](F)C1", "IKKε (Homo sapiens (Human))", "> 7.82"],
  ["N#Cc1cc(-c2ccnc(Nc3cnc4c(c3)CNC4)n2)cnc1N1CC[C@H](F)C1", "IKKε (Homo sapiens (Human))", "> 7.52"],
  ["N#Cc1cc(-c2ccnc(Nc3cn[nH]c3)n2)cnc1N1CC[C@H](F)C1", "IKKε (Homo sapiens (Human))", "> 7.82"],
  ["CN(C(=O)CN1CCOCC1)c1ccc(Nc2nccc(-c3cnc(N4CC[C@H](O)C4)c(C#N)c3)n2)cn1", "IKKε (Homo sapiens (Human))", "> 6.00"],
  ["N#Cc1cc(-c2ccnc(Nc3ccc(NC4CCNCC4)nc3)n2)cnc1N1CC[C@H](F)C1", "IKKε (Homo sapiens (Human))", "> 7.52"],
  ["Cn1cc(Nc2nccc(-c3cnc(N4CC[C@H](O)C4)c(C#N)c3)n2)cn1", "IKKε (Homo sapiens (Human))", "> 7.00"],
  ["CN1CCN(C(=O)c2cccc(Nc3nccc(-c4cnc(N5CC[C@H](F)C5)c(C#N)c4)n3)c2)CC1", "IKKε (Homo sapiens (Human))", "> 7.00"],
  ["CN1CCC(NC(=O)c2cccc(Nc3nccc(-c4cnc(N5CC[C@H](F)C5)c(C#N)c4)n3)c2)CC1", "IKKε (Homo sapiens (Human))", "> 7.00"]
]}

====

- system: IKKε (Homo sapiens (Human), UniProt Q14164)
- procedure_summary: Lanthascreen TR-FRET kinase inhibition assay, IKKε
- Type: biochemical
- protocol_conditions: 20 μM ATP (apparent Km), 2 nM kinase, 1 h
Known IC50 of a selection of compounds

{"columns": ["compound", "IC50"],
 "data": [
  ["CN1CCC(Nc2ccc(Nc3nccc(-c4cnc(N[C@@H]5CCOC5)c(C#N)c4)n3)cn2)CC1", "< 100 nM"],
  ["COC1CN(Cc2ccc(Nc3nccc(-c4cnc(N5CC[C@H](F)C5)c(C#N)c4)n3)cn2)C1", "< 30 nM"],
  ["N#Cc1cc(-c2ccnc(Nc3cccc(C(=O)NC4CCNCC4)c3)n2)cnc1N[C@@H]1CCOC1", "< 1000 nM"],
  ["CN1CCC(Nc2ccc(Nc3nccc(-c4cnc(N5CC[C@H](F)C5)c(C#N)c4)n3)cn2)CC1", "< 15 nM"],
  ["N#Cc1cc(-c2ccnc(Nc3cnn(C[C@H](O)CO)c3)n2)cnc1N1CCCC1", "< 100 nM"],
  ["N#Cc1cc(-c2ccnc(Nc3ccnc(N4CCOCC4)c3)n2)cnc1N1CC[C@H](O)C1", "< 30 nM"],
  ["N#Cc1cc(-c2ccnc(Nc3ccc(NC(=O)CN4CCNCC4)nc3)n2)cnc1N1CC[C@H](F)C1", "< 100 nM"],
  ["CC1CN(c2ncc(-c3ccnc(Nc4ccc(CN5CCOCC5)nc4)n3)cc2C#N)CCO1 (centres unmarked)", "< 1000 nM"],
  ["N#Cc1cc(-c2ccnc(Nc3ccc(N4CCNCC4)nc3)n2)cnc1N1CC[C@H](F)C1", "< 15 nM"],
  ["N#Cc1cc(-c2ccnc(Nc3ccc(NC(=O)CN4CCCC4)nc3)n2)cnc1N1CC[C@H](F)C1", "< 100 nM"],
  ["N#Cc1cc(-c2ccnc(Nc3ccc(CN4CCCOCC4)nc3)n2)cnc1N1CC[C@H](F)C1", "< 100 nM"],
  ["N#Cc1cc(-c2ccnc(Nc3ccc(NC(=O)CN4CCOCC4)nc3)n2)cnc1N1CC[C@@H](F)C1", "< 15 nM"],
  ["N#Cc1nc(-c2ccnc(Nc3ccc(OCCN4CC[C@H](F)C4)nc3)n2)ccc1N1CC[C@H](F)C1", "< 100 nM"],
  ["N#Cc1cc(-c2ccnc(Nc3cnn(CCN4CCOCC4)c3)n2)cnc1N1CC[C@H](F)C1", "< 100 nM"],
  ["CC(c1ccc(Nc2nccc(-c3cnc(N4CC[C@H](F)C4)c(C#N)c3)n2)cn1)N1CCOCC1 (some centres unmarked)", "< 30 nM"],
  ["COCCNc1cc(Nc2ncc(F)c(-c3cnc(N4CCCOCC4)c(C#N)c3)n2)ccn1", "< 1000 nM"],
  ["N#Cc1cc(-c2ccnc(Nc3ccc(NC(=O)[C@@H]4CCCN4)nc3)n2)cnc1N1CC[C@H](F)C1", "< 30 nM"],
  ["N#Cc1cc(-c2ccnc(Nc3ccc(NC(=O)C4CC4)nc3)n2)cnc1N1CC[C@H](F)C1", "< 100 nM"],
  ["CC(=O)Nc1ccc(Nc2nccc(-c3cnc(N4CC[C@H](F)C4)c(C#N)c3)n2)cn1", "< 30 nM"],
  ["N#Cc1cc(-c2ccnc(Nc3cnn(CCO)c3)n2)cnc1N1CCCC1", "< 30 nM"],
  ["N#Cc1nc(-c2ccnc(Nc3ccc(N4CCOCC4)cc3)n2)ccc1N1CC[C@H](O)C1", "< 30 nM"],
  ["N#Cc1cc(-c2nc(Nc3ccc(CN4CCOCC4)nc3)ncc2F)cnc1NC1CC1", "< 1000 nM"],
  ["CC(C)C(Nc1ncc(-c2ccnc(Nc3ccc(CN4CCOCC4)nc3)n2)cc1C#N)C(N)=O (centres unmarked)", "< 15 nM"],
  ["N#Cc1cc(-c2ccnc(Nc3ccc(NC(=O)CN4CC[C@H](F)C4)nc3)n2)cnc1N1CC[C@H](F)C1", "< 30 nM"],
  ["N#Cc1cc(-c2ccnc(Nc3ccnc(NC(=O)CN4CCOCC4)c3)n2)cnc1N1CC[C@@H](F)C1", "< 30 nM"],
  ["N#Cc1cc(-c2ccnc(Nc3ccnc(CN4CCOCC4)c3)n2)cnc1N1CC[C@H](F)C1", "< 30 nM"],
  ["CC(C(=O)Nc1ccc(Nc2nccc(-c3cnc(N4CC[C@H](F)C4)c(C#N)c3)n2)cn1)N1CCOCC1 (some centres unmarked)", "< 30 nM"],
  ["N#Cc1cc(-c2ccnc(Nc3ccnc(NC(=O)CN4CCOCC4)c3)n2)cnc1N1CCC2(COC2)C1", "< 100 nM"],
  ["N#Cc1cc(-c2ccnc(Nc3ccc(OCCN4CC[C@H](F)C4)nc3)n2)cnc1N1CC[C@H](F)C1", "< 100 nM"],
  ["CC1(O)CN(Cc2ccc(Nc3nccc(-c4cnc(N5CC[C@H](F)C5)c(C#N)c4)n3)cn2)C1", "< 30 nM"],
  ["N#Cc1cc(-c2nc(Nc3ccc(NC(=O)CN4CCOCC4)nc3)ncc2F)cnc1N1CCCOCC1", "< 1000 nM"],
  ["CN1CCC(Nc2ccc(Nc3nccc(-c4cnc(NCCO)c(C#N)c4)n3)cn2)CC1", "< 1000 nM"]
]}
